Test: Nuclear factor erythroid 2-related factor 2/antioxidant responsive element (Nrf2/ARE) small molecule agonists: luciferase reporter gene qHTS assay in human keratinocytes (AID 1919969); also: nearly all actives have a fitted effect of over 35% in size
Conditions: KeratinoSens HaCaT ARE-luciferase, luminescence, 24 h; series mostly up to 92.4 µM
Description: National Center for Advancing Translational Sciences [NCATS] Division of Preclinical Innovation [DPI] U.S. Environmental Protection Agency [EPA] National Institutes of Environmental Health Sciences [NIEHS] National Toxicology Program [NTP] […] Oxidative stress has been implicated in the pathogenesis of a variety of diseases ranging from cancer to neurodegeneration. […] The activation of the report gene under culture conditions can be detected by ONE-Glo Luciferase Assay System (Promega, Madison, WI). […]
Records with an inconclusive call do not appear. Activity calls are given as the source filed them. Calls follow the shape of the full dose curve.
The categories you may choose from are active, inactive

* Cc1cccc(Nc2ccccc2C(=O)O)c1C | inactive
* CC(=O)N[C@@H](Cc1ccc(O)cc1)C(=O)O | inactive
* CC(COCC(C)OC(=O)c1ccccc1)OC(=O)c1ccccc1 (configuration not stated) | inactive

Answer briefly: the call reported for NC(=O)NC1N=C([O][Al])NC1=O (configuration not stated) in this assay.
inactive
